test: in vivo; conditions: Sprague-Dawley, rat, po, 10 mg/kg
EXPERIMENTAL_ENDPOINT: bioavailability at 24 h (%)

Answered cases to consult:
[[record]]
molecule = "CS(=O)(=O)O.O=c1c2ccc(Cl)cc2[nH]c2c(O)nn(Cc3ccncc3)c(=O)c12"
experimental_endpoint = "bioavailability at 24 h"
reported_value = 5

[[record]]
molecule = "CS(=O)(=O)O.O=c1c2ccc(Cl)cc2[nH]c2c(O)nn(Cc3cnccn3)c(=O)c12"
experimental_endpoint = "bioavailability at 24 h"
reported_value = 37


I: O=c1c2ccc(Cl)cc2[nH]c2c(O)nn(Cc3cc4ccccc4o3)c(=O)c12
II: O=c1[nH]n(Cc2cc3ccccc3s2)c(=O)c2c(=O)c3ccc(Cl)cc3[nH]c12
Parameter check: reported bioavailability at 24 h is higher for which label, I or II ? # answer = label of selected item
I
(I: 25%, II: 12%)

I: CC(c1ccncc1)n1[nH]c(=O)c2[nH]c3cc(Cl)ccc3c(=O)c2c1=O.CS(=O)(=O)O (racemic)
II: O=c1[nH]n(CC#Cc2ccccc2)c(=O)c2c(=O)c3ccc(Cl)cc3[nH]c12
Please indicate which item has the smaller measured bioavailability at 24 h: I versus II # answer = label of selected item
II
(II: 16%, I: 30%)
